test: Human HepG2 cell viability assay in 384 well format; assay type: toxicity, cell-based; design: dose 125 nL, time 70.5 hour; concentration not given beside the values; details: HepG2 cells, read-out: Inhibition
observed_property: cytotoxicity at 70.5 h (%)
Use % as the unit, but write only the number.

Query: What measured cytotoxicity at 70.5 h goes with Cc1nc(-c2cnn(C)c2)sc1C(=O)NCc1cccc(CN(C)C)c1 ?
Reply: -6.53

* * *

assay: Human HepG2 cell viability assay in 384 well format; type: toxicity, cell-based; parameters: dose 125 nL, time 70.5 hour; concentration not given beside the values; conditions: HepG2 cells, read-out: Inhibition
Quick reference: cytotoxicity at 70.5 h of the listed items.
Use % as the unit, but write only the number.

Below: 3 compounds and their reported cytotoxicity at 70.5 h.
O=C(NCCNc1cnccn1)C1CCN(C(=O)N2CCCC2)CC1	2.17
CCN1CCCC1CN(Cc1ccoc1)CC1CCN(CCOC)CC1 (centres undefined)	-3.24
Cc1ccc(N2C[C@@H]3CN(C(=O)NC4CCCC4)C[C@]3(C(=O)O)C2)nn1	2.02

Query: What measured cytotoxicity at 70.5 h goes with COc1ccc(CN2CCn3c(CNS(C)(=O)=O)nnc3C2)cc1 ?
Reply: 24.4

Query: What measured cytotoxicity at 70.5 h goes with Cn1cc(C2CCCN2C(=O)Cn2c(=O)oc3ccccc32)cn1 (centres undefined) ?
Reply: -4.25

Query: What measured cytotoxicity at 70.5 h goes with CN(C)S(=O)(=O)c1ccc(F)c(NC(=O)COCC2CC2)c1 ?
Reply: -10.8

Query: What measured cytotoxicity at 70.5 h goes with CCN(CC)C(=O)CC[C@@H]1CNC(=O)[C@@H]2C[C@H](NC(=O)C3CC3)CN12 ?
Reply: -2.96

Query: What measured cytotoxicity at 70.5 h goes with O=C(NCCCOCC1CCCO1)c1cccnc1N1CCOCC1 (centres undefined) ?
Reply: 36.7

Query: What measured cytotoxicity at 70.5 h goes with CNc1cc(C)nc(N2CCN(Cc3ccccc3)CC(O)C2)n1 (centres undefined) ?
Reply: -0.369

Query: What measured cytotoxicity at 70.5 h goes with Cc1cc(C)c(C(=O)N2CCN(c3ncccc3C#N)CC2)c(=O)[nH]1 ?
Reply: 1.08

Query: What measured cytotoxicity at 70.5 h goes with CCc1cc(NCc2ccccc2CN2CCCC2)n2ncnc2n1 ?
Reply: 29.1

Query: What measured cytotoxicity at 70.5 h goes with O=C(NCc1nncn1C1CC1)c1ccccc1OCC1CC1 ?
Reply: -5.93
